Recorded values, source patent US20220313701A1.

Target: human TREX2 (residues M44-A279) (Homo sapiens)
Construct: human TREX2 (residues M44-A279, expressed in E. coli); His-Tev (His tag with TEV site) (N)
Assay: TREX2 Biochemical Assay (fluorescence assay, degradation of dsDNA substrate)
Details: 2.5 nM TREX2, 60 nM dsDNA substrate, 25 minutes at room temperature
pIC50: −log10 of the molar value.
reported_metric: pIC50

• Cc1nn(C)cc1-c1cc(C(F)(F)F)cc(N2CCC(O)(c3ccc(F)c(F)c3)CC2)n1 = < 4.00
• OC1(c2ccc(F)cc2)CCN(c2nccc(-n3cccn3)n2)CC1 = < 4.00
• OC1(c2ccc(F)cc2)CCN(c2cncc(Cl)n2)CC1 = < 4.00
• OC1(c2ccc(F)cc2)CCN(c2ccc3nccn3n2)CC1 = < 4.00
• Cn1nc(C(F)(F)F)cc1-c1cncc(N2CCC(O)(c3ccc(F)c(F)c3)CC2)n1 = < 4.00
• Cn1cc(-c2nccc(N3CCC(O)(c4ccc(F)cc4)CC3)n2)cn1 = < 4.00
• Cc1nn(C)cc1-c1nc(N2CCC(O)(c3ccc(F)c(F)c3)CC2)sc1C(N)=O = < 4.00
• Cn1cc(-c2cncc(N3CCC(O)(Cc4ccccc4)CC3)n2)cn1 = < 4.00

---

Target: human TREX2 (residues M44-A279) (Homo sapiens, UniProt Q9BQ50)
Construct: human TREX2 (residues M44-A279, expressed in E. coli); His-Tev (His tag with TEV site) (N)
Sequence (Q9BQ50 whole entry, the tested form may be a part): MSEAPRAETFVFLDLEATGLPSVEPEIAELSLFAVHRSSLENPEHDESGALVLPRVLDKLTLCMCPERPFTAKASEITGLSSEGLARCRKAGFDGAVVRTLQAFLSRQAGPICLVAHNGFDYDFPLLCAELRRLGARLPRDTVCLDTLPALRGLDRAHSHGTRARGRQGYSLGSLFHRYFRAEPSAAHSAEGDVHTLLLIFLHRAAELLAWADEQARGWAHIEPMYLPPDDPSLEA
Experiment: TREX2 Biochemical Assay (fluorescence assay, degradation of dsDNA substrate)
Details: 2.5 nM TREX2, 60 nM dsDNA substrate, 25 minutes at room temperature
reported_metric: IC50

- COc1ccc(C2(O)CCN(c3cncc(-n4cccn4)n3)CC2)cc1: > 100 µM
- Cc1cnn(-c2cncc(N3CCC(O)(c4ccc(F)cc4)CC3)n2)c1: > 100 µM
- OC1(c2ccc(F)cc2)CCN(c2cncc(-c3cccc(C(F)(F)F)c3)n2)CC1: > 100 µM
- Cn1cc(-c2cc(-c3cnn(C)c3)nc(N3CCC(O)(c4cccc(F)c4)CC3)c2)cn1: > 100 µM
- Cc1nn(C)cc1-c1cc(C(=O)N2CCCCC2)cc(N2CCC(O)(c3ccc(F)c(F)c3)CC2)n1: 10 to 100 µM
- Cc1ccc(-c2cncc(N3CCC(O)(c4ccc(F)c(F)c4)CC3)n2)c(C)n1: 10 to 100 µM
- Cc1nn(C)cc1-c1ccnc(N2CCC(O)(c3ccc(F)c(F)c3)CC2)n1: > 100 µM
- OC1(c2ccc(Cl)cc2)CCN(c2cncc(-n3cccn3)n2)CC1: 10 to 100 µM
- Cc1nn(C(C)C)cc1-c1cncc(N2CCC(O)(c3ccc(F)c(F)c3)CC2)n1: 10 to 100 µM
- OC1(c2ccc(F)cc2)CCN(c2cncc(-c3cccc(F)c3)n2)CC1: > 100 µM
- Cc1cc(C2(O)CCN(c3cncc(-c4cn(C)nc4C)n3)CC2)ccc1F: > 100 µM
- Cc1nn(C)cc1-c1cncc(N2CC[C@@](O)(c3ccc(F)c(F)c3)C[C@@H]2C)n1 (racemic): > 100 µM
- Cc1nn(C)cc1-c1c[nH]c(=O)c(N2CCC(O)(c3ccc(F)c(F)c3)CC2)n1: > 100 µM
- COc1cc(N2CCC(O)(c3ccc(F)cc3)CC2)ncn1: > 100 µM
- O=C(NCC(O)c1ccccc1)c1cncc(N2CCC(O)(c3ccc(F)cc3)CC2)n1 (centres unmarked): > 100 µM
- Cc1nn(C)cc1-c1cc(CO)cc(N2CCC(O)(c3ccc(F)c(F)c3)CC2)n1: 10 to 100 µM
- Cc1ncc(-c2cnn(C)c2)nc1N1CCC(O)(c2ccc(F)c(F)c2)CC1: > 100 µM

---

Biological target: human TREX2 (residues M44-A279) (Homo sapiens, UniProt Q9BQ50)
Construct: human TREX2 (residues M44-A279, expressed in E. coli); His-Tev (His tag with TEV site) (N)
Assay: TREX2 Biochemical Assay (fluorescence assay, degradation of dsDNA substrate)
Details: 2.5 nM TREX2, 60 nM dsDNA substrate, 25 minutes at room temperature
pIC50: −log10 of the molar value.
reported_metric: pIC50

- OC1(c2ccc(F)cc2)CCN(c2cncc(-c3ccc(C(F)(F)F)cc3)n2)CC1: < 4.00
- OC1(c2ccc(F)cc2)CCN(c2cncc(-c3ccccc3C(F)(F)F)n2)CC1: < 4.00
- CCn1cc(-c2cncc(N3CCC(O)(c4ccc(F)c(F)c4)CC3)n2)c(C)n1: 5.00 to 6.00
- Cc1nc(N2CCC(O)(c3ccc(F)c(F)c3)CC2)cc(N(C)C2(c3ccccn3)CC2)n1: < 4.00
- Cc1nn(C)cc1-c1cc(N2CCC(O)(c3ccc(F)c(F)c3)CC2)ccn1: < 4.00
- Cc1nn(C)cc1-c1cncc(N2CCC(O)(c3cc(F)c(F)c(F)c3)CC2)n1: 4.00 to 5.00
- OC1(c2ccc(F)cc2)CCN(c2cncc(-c3cccnc3)n2)CC1: < 4.00
- Cc1nc(-c2cn(C)nc2Cc2ccccc2)cc(N2CCC(O)(c3ccc(F)c(F)c3)CC2)n1: < 4.00

---

Catalogue of pIC50 values
Target: human TREX2 (residues M44-A279) (Homo sapiens)
Construct: human TREX2 (residues M44-A279, expressed in E. coli); His-Tev (His tag with TEV site) (N)
Assay: TREX2 Biochemical Assay (fluorescence assay, degradation of dsDNA substrate)
Details: 2.5 nM TREX2, 60 nM dsDNA substrate, 25 minutes at room temperature
pIC50: −log10 of the molar value.
reported_metric: pIC50

- OC1(c2ccc(F)cc2)CCN(c2cncc(-c3cnn(C(F)F)c3)n2)CC1: < 4.00
- N#Cc1ccccc1-c1cncc(N2CCC(O)(c3ccc(F)cc3)CC2)n1: < 4.00
- Cc1nc(N2CCC(O)(c3ccc(F)c(F)c3)CC2)cc(-n2ccnc2-c2ccccn2)n1: < 4.00
- Cc1nn(C)cc1-c1cc(C(=O)NCc2ccccc2)cc(N2CCC(O)(c3ccc(F)c(F)c3)CC2)n1: < 4.00
- O=C(NCc1ccccn1)c1cncc(N2CCC(O)(c3ccc(F)cc3)CC2)n1: < 4.00
- Cc1nc(-c2cn(C)nc2-c2ccccc2)cc(N2CCC(O)(c3ccc(F)c(F)c3)CC2)n1: < 4.00
- Cn1cc(-c2cncc(N3CCC(O)(c4ccc(F)cc4)CC3)n2)cn1: < 4.00
- Cc1nn(C)cc1-c1ccnc(N2CCC(O)(c3ccc(F)c(F)c3)CC2)c1: < 4.00

---

Biological target: full length human TREX1 (Homo sapiens, UniProt Q9NSU2)
Construct: N-terminally His-Tev tagged full length human TREX1; His-Tev (His tag with TEV site) (N)
Sequence (Q9NSU2 1-314): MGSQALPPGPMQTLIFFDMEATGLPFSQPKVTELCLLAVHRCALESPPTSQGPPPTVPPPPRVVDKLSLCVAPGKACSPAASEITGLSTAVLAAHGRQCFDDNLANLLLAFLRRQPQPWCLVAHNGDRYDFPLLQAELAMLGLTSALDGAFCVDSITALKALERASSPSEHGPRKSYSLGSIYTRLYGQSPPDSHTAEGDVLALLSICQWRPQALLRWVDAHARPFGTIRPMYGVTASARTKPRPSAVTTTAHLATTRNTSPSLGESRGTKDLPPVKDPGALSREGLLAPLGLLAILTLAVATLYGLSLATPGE
Test: TREX1 Biochemical Assay (fluorescence assay, degradation of dsDNA substrate)
Settings: 150 pM TREX1, 60 nM dsDNA substrate, 25 minutes at room temperature
# reported IC50; entries follow
reported_metric: IC50

* OC1(c2ccccc2F)CCN(c2cncc(-n3cccn3)n2)CC1 [Example 3] | > 10 µM
* Cc1cc(-c2cncc(N3CCC(O)(c4ccc(F)c(F)c4)CC3)n2)n(C)n1 [Example 53] | 1 to 10 µM
* OC1(c2ccncc2)CCN(c2cncc(-n3cccn3)n2)CC1 [Example 76] | > 10 µM
* Cn1cc(-c2cncc(N3CCC(O)(c4ccc(F)c(F)c4)CC3)n2)c(C2CC2)n1 [Example 11] | 0.1 to 1 µM
* Cn1nc(C(F)(F)F)cc1-c1cncc(N2CCC(O)(c3ccc(F)c(F)c3)CC2)n1 [Example 50] | > 10 µM
* OC1(c2ccc(F)cc2)CCN(c2cncc(-c3cccc(C(F)(F)F)c3)n2)CC1 [Example 32] | > 10 µM
* Cc1nc(N2CCC(O)(c3ccc(F)c(F)c3)CC2)cc(N2CCOC[C@H]2c2ccccc2)n1 [Example 104] | 1 to 10 µM
* OC1(c2ccc(F)cc2)CCN(c2ccccn2)CC1 [Example 86] | > 10 µM
* OC1(c2ccc(F)cc2)CCN(c2cncc(-c3cncnc3)n2)CC1 [Example 18] | 1 to 10 µM
